The following compounds are listed with their measured solubility thermodynamic at 24 h values.
- experiment: Thermodynamic aqueous solubility at pH 7.4
- Assay type: physicochemical
- measurementContext: aqueous buffer, thermodynamic from solid, phosphate buffer pH 7.4, 25° C., approximate values, read-out: Concentration (thermodynamic aqueous solubility)

compound: CCn1cc(C(=O)O)c(=O)c2c(N)c(F)c(NC3CC3)cc21
unitAbbreviation: µM
qualifyingSign: =
solubility thermodynamic at 24 h: 2.4

compound: CCn1cc(C(=O)O)c(=O)c2c(N)c(F)c(Nc3ccccc3)cc21
unitAbbreviation: µM
qualifyingSign: =
solubility thermodynamic at 24 h: 1.1

compound: CCn1cc(C(=O)O)c(=O)c2c(N)c(F)c(NCCN[C@@H]3C[C@H]3c3ccccc3)cc21 (relative stereo)
unitAbbreviation: µM
qualifyingSign: =
solubility thermodynamic at 24 h: 1.93

compound: CCn1cc(C(=O)O)c(=O)c2c(N)c(F)c(N[C@@H]3C[C@@H]3c3ccccc3)cc21 (relative stereo)
unitAbbreviation: µM
qualifyingSign: <
solubility thermodynamic at 24 h: 0.03

---

- tgt: UniProt:P49840
- Sequence (P49840 whole entry): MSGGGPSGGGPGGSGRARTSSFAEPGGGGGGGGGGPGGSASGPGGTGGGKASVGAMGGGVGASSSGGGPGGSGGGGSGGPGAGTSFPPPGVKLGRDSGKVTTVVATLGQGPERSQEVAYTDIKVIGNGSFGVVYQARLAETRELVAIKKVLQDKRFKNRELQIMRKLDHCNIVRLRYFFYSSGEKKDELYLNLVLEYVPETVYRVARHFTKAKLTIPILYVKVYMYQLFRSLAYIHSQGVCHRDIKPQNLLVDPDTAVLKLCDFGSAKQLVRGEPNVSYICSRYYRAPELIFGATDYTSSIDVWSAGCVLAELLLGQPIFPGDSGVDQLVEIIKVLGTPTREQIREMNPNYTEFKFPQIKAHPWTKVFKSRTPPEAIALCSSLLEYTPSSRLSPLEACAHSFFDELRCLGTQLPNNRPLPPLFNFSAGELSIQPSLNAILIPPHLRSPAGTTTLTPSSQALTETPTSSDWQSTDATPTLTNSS
- experiment: GSK3α in vitro enzymatic assay (Kinase-Glo Max luminescence)
- measurementContext: recombinant human GSK3, 10 μM ATP; approximate values; read-out: Potency GSK3alpha
Reported log10 IC50 values for a set of compounds
testReadout: log10 IC50 (log10 of the value in µM)

compound: CCn1cc(C(=O)O)c(=O)c2c(N)c(F)c(NC3CC3)cc21
tgt: UniProt:P49840
log10 IC50: -0.45
--
compound: CC(C)n1cc(C(=O)O)c(=O)c2c(N)c(F)c(NCCN[C@@H]3C[C@H]3c3ccccc3)cc21 (relative stereo)
tgt: UniProt:P49840
log10 IC50: -1.71
--
compound: CCn1cc(C(=O)O)c(=O)c2c(N)c(F)c(NCCc3ccccc3)cc21
tgt: UniProt:P49840
log10 IC50: -0.92
--
compound: CCC(CC)n1cc(C(=O)O)c(=O)c2c(C)c(F)c(NC3CCCCC3)cc21
tgt: UniProt:P49840
log10 IC50: -0.60
--
compound: CCn1cc(C#N)c(=O)c2c(N)c(F)c(NCCN[C@@H]3C[C@H]3c3ccccc3)cc21 (relative stereo)
tgt: UniProt:P49840
log10 IC50: -2.57
--
compound: Cn1cc(C(=O)O)c(=O)c2c(N)c(F)c(NCCN[C@@H]3C[C@H]3c3ccccc3)cc21 (relative stereo)
tgt: UniProt:P49840
log10 IC50: -0.04
--
compound: CCn1cc(C(=O)O)c(=O)c2c(N)c(F)c(NC3CCc4ccccc43)cc21 (centres unmarked)
tgt: UniProt:P49840
log10 IC50: 0.58
--
compound: CCn1cc(C(=O)O)c(=O)c2c(N)c(F)c(NC3CCCC3)cc21
tgt: UniProt:P49840
log10 IC50: -1.16
--
compound: CCn1cc(C(=O)O)c(=O)c2c(N)c(F)c(N[C@@H]3C[C@@H]3c3ccccc3)cc21 (relative stereo)
tgt: UniProt:P49840
log10 IC50: -0.66
--
compound: CCn1cc(C(=O)O)c(=O)c2c(N)c(F)c(N[C@@H]3C[C@H]3c3ccccc3)cc21 (single isomer, unassigned) [Compound I-20]
tgt: UniProt:P49840
log10 IC50: -0.99
--
compound: CCn1cc(C(=O)O)c(=O)c2c(N)c(F)c(NCCN[C@@H]3C[C@H]3c3ccccc3)cc21 (relative stereo)
tgt: UniProt:P49840
log10 IC50: -0.92
--
compound: CCn1cc(C(=O)O)c(=O)c2c(N)cc(NCCCc3ccccc3)cc21
tgt: UniProt:P49840
log10 IC50: -0.12
--
compound: CCn1cc(-c2nnn[nH]2)c(=O)c2c(N)c(F)c(NCCc3ccccc3)cc21
tgt: UniProt:P49840
log10 IC50: -0.24
--
compound: CCn1cc(C(=O)O)c(=O)c2c(N)c(F)c(NCCCc3ccccc3)cc21
tgt: UniProt:P49840
log10 IC50: -1.72
--
compound: CCn1cc(C(=O)O)c(=O)c2c(N)c(F)c(NC3CCC3)cc21
tgt: UniProt:P49840
log10 IC50: -1.09

---

- experiment: Caco-2 cell permeability assay
- Format: in vitro ADME
- measurementContext: human, pH 7.4; Caco-2, Papp (B-A)/Papp (A-B); approximate values
Attribute: efflux ratio at 2 h, 10 µM

compound: CCn1cc(C(=O)O)c(=O)c2c(N)c(F)c(NC3Cc4ccccc4C3)cc21
efflux ratio at 2 h, 10 µM: 0.53

compound: CCn1cc(C(=O)O)c(=O)c2c(N)c(F)c(NC3CCCCC3)cc21
efflux ratio at 2 h, 10 µM: 0.32

compound: CCn1cc(C(=O)O)c(=O)c2c(N)c(F)c(N[C@@H]3C[C@@H]3c3ccccc3)cc21 (relative stereo)
efflux ratio at 2 h, 10 µM: 0.69

compound: CCn1cc(C(=O)O)c(=O)c2c(N)c(F)c(NC3CN(c4ccccc4)C3)cc21
efflux ratio at 2 h, 10 µM: 0.78

compound: CCn1cc(C(=O)O)c(=O)c2c(N)c(F)c(NCCCc3ccccc3)cc21
efflux ratio at 2 h, 10 µM: 0.38

compound: CCn1cc(C(=O)O)c(=O)c2c(N)c(F)c(NC3CCOCC3)cc21
efflux ratio at 2 h, 10 µM: 3.02

compound: CCn1cc(C(=O)O)c(=O)c2c(N)c(F)c(NC3CCC3)cc21
efflux ratio at 2 h, 10 µM: 0.72

compound: CCn1cc(C(=O)O)c(=O)c2cc(F)c(NC3CCCCC3)cc21
efflux ratio at 2 h, 10 µM: 0.47

---

As shown below, each of these compounds has a reported solubility thermodynamic at 24 h value.
- experiment: Thermodynamic aqueous solubility at pH 7.4
- Format: physicochemical
- measurementContext: aqueous buffer, thermodynamic from solid, phosphate buffer pH 7.4, 25° C., approximate values, read-out: Concentration (thermodynamic aqueous solubility)
testReadout: solubility thermodynamic at 24 h

compound: Cn1cc(C(=O)O)c(=O)c2c(N)c(F)c(NCCN[C@@H]3C[C@H]3c3ccccc3)cc21 (relative stereo)
testReadout: solubility thermodynamic at 24 h
valueReported: 23 µM
--
compound: CCn1cc(C(=O)O)c(=O)c2c(N)cc(N[C@@H]3C[C@H]3c3ccccc3)cc21 (relative stereo)
testReadout: solubility thermodynamic at 24 h
valueReported: < 0.06 µM
--
compound: CCn1cc(C(=O)O)c(=O)c2c(N)c(F)c(N[C@@H]3C[C@H]3c3ccccc3)cc21 (single isomer, unassigned)
testReadout: solubility thermodynamic at 24 h
valueReported: < 0.3 µM
--
compound: CCn1cc(C(=O)O)c(=O)c2c(N)c(F)c(NC3CCCC3)cc21
testReadout: solubility thermodynamic at 24 h
valueReported: < 1.8 µM
--
compound: CCn1cc(C#N)c(=O)c2c(N)c(F)c(NCCc3ccccc3)cc21
testReadout: solubility thermodynamic at 24 h
valueReported: 0.23 µM
--
compound: Nc1c(F)c(N[C@@H]2C[C@H]2c2ccccc2)c(F)c2c1c(=O)c(C(=O)O)cn2C1CC1 (relative stereo)
testReadout: solubility thermodynamic at 24 h
valueReported: < 0.08 µM
--
compound: CCn1cc(C(=O)O)c(=O)c2c(N)cc(NCCc3ccccc3)c(F)c21
testReadout: solubility thermodynamic at 24 h
valueReported: 0.11 µM
--
compound: CCn1cc(C(=O)O)c(=O)c2c(N)c(F)c(NCCCc3ccccc3)cc21
testReadout: solubility thermodynamic at 24 h
valueReported: < 0.03 µM
--
compound: CCn1cc(C#N)c(=O)c2c(N)c(F)c(N[C@@H]3C[C@H]3c3ccccc3)cc21 (relative stereo)
testReadout: solubility thermodynamic at 24 h
valueReported: < 0.01 µM
--
compound: CCn1cc(C(=O)O)c(=O)c2c(N)c(F)c(NCCc3ccccc3)cc21
testReadout: solubility thermodynamic at 24 h
valueReported: 0.12 µM
--
compound: CCn1cc(C(=O)O)c(=O)c2c(N)c(F)c(NC3CN(c4ccccc4)C3)cc21
testReadout: solubility thermodynamic at 24 h
valueReported: < 0.03 µM
--
compound: CCCn1cc(C(=O)O)c(=O)c2c(N)c(F)c(NCCN[C@@H]3C[C@H]3c3ccccc3)cc21 (relative stereo)
testReadout: solubility thermodynamic at 24 h
valueReported: 8 µM
--
compound: CCn1cc(C(=O)O)c(=O)c2c(N)c(F)c(NC3CCC3)cc21
testReadout: solubility thermodynamic at 24 h
valueReported: 2.7 µM
--
compound: CCn1cc(C(=O)O)c(=O)c2c(N)c(F)c(Nc3ccc([C@@H]4C[C@H]4N)cc3)cc21 (relative stereo)
testReadout: solubility thermodynamic at 24 h
valueReported: 54 µM
--
compound: CCn1cc(-c2nnn[nH]2)c(=O)c2c(N)c(F)c(NCCc3ccccc3)cc21
testReadout: solubility thermodynamic at 24 h
valueReported: 0.03 µM

Hello, the source for this data is patent US20230058189A1, in case you need it.
